Parameter TGI: see the listing below.
- System: EKVX NSCLC
- PROTOCOL SUMMARY: NCI tumour cell line growth inhibition, 48 h

| QUERY SMILES | TGI |
| --- | --- |
| Cc1c2c(nn1-c1ccc(S(=O)(=O)/N=C3\SCC(=O)N3C(=O)c3ccccc3)cc1)-c1ccccc1CC2 | 90.7 µM |
| CC(=O)O[C@@H]1C=C(C)[C@H](CBr)O[C@@]2(C)CC[C@H](Br)C(C)(C)[C@H]12 | > 100 µM |
| N#[O+].O=S(=O)([O-])[O-].[NH2-].[NH2-].[NH2-].[NH2-].[NH2-].[Ru+5] | > 100 µM |
| CC(=O)NCc1nc(C#N)c(N)o1 | > 100 µM |
| O=c1c2ccccc2nnn1-c1n[nH]c2ccccc12 | > 100 µM |

###

- System: NCI-H23 lung
- PROTOCOL SUMMARY: NCI tumour cell line growth inhibition, 48 h
Parameter GI50: see the listing below.

| QUERY SMILES | GI50 |
| --- | --- |
| CC(C)(C)OC(=O)N(CCCN(CCn1c2c(c3ccccc3c1=O)C(=O)c1ccccc1-2)C(=O)OC(C)(C)C)CCn1c2c(c3ccccc3c1=O)C(=O)c1ccccc1-2 | > 50 µM |
| COc1ccc(/C(=N/Nc2ccc([N+](=O)[O-])cc2)Sc2cc(Cl)c(C)cc2S(N)(=O)=O)cc1 | 4.69 µM |
| CC[C@H](C)[C@H](NC(=O)[C@H]1CCCCN1C)C(=O)N(C)[C@H](CCc1nc(C(=O)N[C@@H](Cc2ccccc2)C[C@H](C)C(=O)OC)cs1)C(C)C | 0.866 µM |

###

Target or system HCC-2998 colon; recorded quantity GI50.

| COMPOUND | SUBJECT OF TEST | GI50 |
| --- | --- | --- |
| CC12CCCC(CC(=O)c3[nH]c4ccccc4c31)C2 (stereo not given) | HCC-2998 colon | 1790 nM |
| COc1cc(Cn2c(-c3ccccc3)cc3c2-c2oncc2CC3)cc(OC)c1OC | HCC-2998 colon | 2210 nM |
| Cc1c2c(nn1-c1ccc(S(=O)(=O)/N=C3\SCC(=O)N3C(=O)c3ccccc3)cc1)-c1ccccc1CC2 | HCC-2998 colon | 98600 nM |
| COc1ccc(C2CC(=O)c3c(OC)cc(OC)cc3O2)cc1 (stereo not given) | HCC-2998 colon | > 100000 nM |
| CCCCC/C=C/C/C=C/CCCCCCCC1=NC(C)(C)CN1C(C)C | HCC-2998 colon | 1670 nM |
| COc1ccc(-n2c(SCc3cc(OC)c(OC)c(OC)c3)nc3ccc(C)cc3c2=O)cc1 | HCC-2998 colon | > 100000 nM |
| O=C(CCCSc1nc(-c2ccc(Cl)cc2)cc(-c2ccc(Cl)cc2)n1)NO | HCC-2998 colon | 2780 nM |
| Nc1nccc(-c2c(-c3ccc(F)cc3)ncn2CCCN2CCOCC2)n1 | HCC-2998 colon | > 25000 nM |
| COc1cc2c(/C=C3/C(=O)Nc4cccc(Cl)c43)c(Cl)n(Cc3ccccc3)c2cc1C | HCC-2998 colon | 3100 nM |
| C[C@]12CC[C@@H]3c4ccc(O)cc4CC[C@H]3[C@@H]1CC[C@@H]2NS(=O)(=O)c1ccc(C(F)(F)F)cc1 | HCC-2998 colon | 2110 nM |
